The measurements presented in this section are drawn from patent US8202904B2.

# measurement-notes: Acute toxicity on rats by oral administration
# measurement-setup: male, rat, in vivo
value-type: LD50 (mg/kg)
Give the value, in units of mg/kg, as a plain number.

Any idea what its LD50 is? The compound is CC1(C)[C@H](C=CCl)[C@@H]1C(=O)OC(C#N)c1ccc(F)c(Oc2ccccc2)c1 (relative stereo) [Compound 2] 116

---

# Tested on: Culex pipiens pallens fourth instar wiggler
# measurement-notes: Killing effect on wiggler, WHO immersing method, LC50
# Format: in vivo
# measurement-setup: Culex pipiens pallens fourth instar wiggler, immersing method, mortality after 24 hours, 26±1° C.
value-type: LC50 (µg/mL)
Your answer is read as µg/mL, so omit the unit and give the number.

Example results:
CC1(C)[C@H](/C=C/Cl)[C@@H]1C(=O)OCc1c(F)c(F)cc(F)c1F (relative stereo) = 0.4810
CC1(C)[C@H](/C=C/Cl)[C@@H]1C(=O)OCc1c(F)c(F)c(F)c(F)c1F (relative stereo) = 0.0801
CC1(C)[C@@H](C=CCl)[C@@H]1C(=O)OCc1c(F)c(F)cc(F)c1F (relative stereo) [Compound 9, reference compound] = 0.2492
CC1(C)C(C=CCl)C1C(=O)OC(C#N)c1ccc(F)c(Oc2ccccc2)c1 (mixture of isomers) = 0.00055
CC1(C)[C@@H](C=CCl)[C@@H]1C(=O)OCc1c(F)c(F)c(F)c(F)c1F (relative stereo) = 0.2041

We now examine a further compound.
Fill in: LC50 of Cc1c(F)c(F)c(COC(=O)[C@H]2[C@@H](/C=C/Cl)C2(C)C)c(F)c1F (relative stereo) is ___ 0.0741
